Reference source for all entries: PubChem BioAssay AID1963835

System: 699152-130-R-J1-PDC complex spheroid viability
Experiment: Anticancer human tumor 699152-130-R-J1-PDC patient-derived pancreatic carcinoma cell line growth inhibition [POLQ]
Conditions: second compound 10 µM; first compound 10 µM; stronger effect = lower value
Friendly reminder: viability, T/C below 40% is 1 (yes), at or above is 0 (no).

[
  {
    "compound": "CC1COCCN1c1cc(-c2ccnn2C)c2ccnc(-c3ccn[nH]3)c2n1 (stereo not given) + Nc1ccc(C#CCN(C(=O)Cc2ncc(C(F)(F)F)cc2C(F)(F)F)c2ccc(F)cc2)nn1",
    "testTarget": "699152-130-R-J1-PDC complex spheroid viability",
    "labelValue": "0 (no)"
  },
  {
    "compound": "CC1COCCN1c1cc(C2(O)CC3CCC(C2)O3)c2cnn(-c3ccn[nH]3)c2n1 (stereo not given) + Nc1ccc(C#CCN(C(=O)Cc2ncc(C(F)(F)F)cc2C(F)(F)F)c2ccc(F)cc2)nn1",
    "testTarget": "699152-130-R-J1-PDC complex spheroid viability",
    "labelValue": "1 (yes)"
  },
  {
    "compound": "CC1COCCN1c1cc(-c2ccnn2C)c2ccnc(-c3ccn[nH]3)c2n1 (stereo not given) + COC1C(OC(N)=O)C(O)C(Oc2ccc3c(O)c(NC(=O)c4ccc(O)c(CC=C(C)C)c4)c(=O)oc3c2C)OC1(C)C",
    "testTarget": "699152-130-R-J1-PDC complex spheroid viability",
    "labelValue": "0 (no)"
  },
  {
    "compound": "CC1COCCN1c1cc(C2(S(C)(=N)=O)CC2)nc(-c2ccnc3[nH]ccc23)n1 (stereo not given) + COC1C(OC(N)=O)C(O)C(Oc2ccc3c(O)c(NC(=O)c4ccc(O)c(CC=C(C)C)c4)c(=O)oc3c2C)OC1(C)C",
    "testTarget": "699152-130-R-J1-PDC complex spheroid viability",
    "labelValue": "0 (no)"
  },
  {
    "compound": "COc1cccc2c1C(=O)c1c(O)c3c(c(O)c1C2=O)CC(O)(C(=O)CO)CC3OC1CC(N)C(O)C(C)O1 (stereo not given) + Nc1ccc(C#CCN(C(=O)Cc2ncc(C(F)(F)F)cc2C(F)(F)F)c2ccc(F)cc2)nn1",
    "testTarget": "699152-130-R-J1-PDC complex spheroid viability",
    "labelValue": "1 (yes)"
  }
]

Query: Given CCc1cc2c(N3CCc4c(cc(Cn5ccnc5)cc4-c4cn(C)nc4C(F)(F)F)C3=O)cc(C)nc2c(OC)n1 + Cc1cccc(N(C)C(=O)C2C(O)CCN2c2nc(C)cc(C(F)(F)F)c2C#N)c1 , is recorded viability, T/C strictly lower than 40%?
Response: 0 (no)

Query: Does the reported viability, T/C of the following compound sit strictly below 40%? O=C(c1cc(Cc2n[nH]c(=O)c3ccccc23)ccc1F)N1CCN(C(=O)C2CC2)CC1 + COC1C(OC(N)=O)C(O)C(Oc2ccc3c(O)c(NC(=O)c4ccc(O)c(CC=C(C)C)c4)c(=O)oc3c2C)OC1(C)C
Response: 1 (yes)

Query: Bench note: check whether O=C(Nc1ccc(O)c(NS(=O)(=O)c2ccc(F)cc2)c1)c1ccc(-c2ccccc2)cc1 + COC1C(OC(N)=O)C(O)C(Oc2ccc3c(O)c(NC(=O)c4ccc(O)c(CC=C(C)C)c4)c(=O)oc3c2C)OC1(C)C shows viability, T/C below 40%
Response: 0 (no)

Query: Dear colleague, could you confirm whether viability, T/C of O=c1[nH]cc(F)c(=O)[nH]1 + Cc1cccc(N(C)C(=O)C2C(O)CCN2c2nc(C)cc(C(F)(F)F)c2C#N)c1 falls below 40%? Thanks.
Response: 0 (no)

----------
Tested on: 699152-130-R-J1-PDC complex spheroid viability
Assay: Anticancer human tumor 699152-130-R-J1-PDC cell line growth inhibition [POLQ];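 further: spheroids exposed to agents for 7 days before viability reading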
Conditions: curve of first compound; second compound 0.0316 µM
Each item that follows carries a reported IC50.

Query: Reported IC50, compound COc1cc(C2c3cc4c(cc3C(OC3OC5COC(C)OC5C(O)C3O)C3COC(=O)C23)OCO4)cc(OC)c1O (stereo not given) + Nc1ccc(C#CCN(C(=O)Cc2ncc(C(F)(F)F)cc2C(F)(F)F)c2ccc(F)cc2)nn1 : ____
Response: 9.72 µM

Query: Can you look up the measured IC50 of CC[C@@]1(O)C(=O)OCc2c1cc1n(c2=O)Cc2cc3c(CN(C)C)c(O)ccc3nc2-1 + Cc1cccc(N(C)C(=O)C2C(O)CCN2c2nc(C)cc(C(F)(F)F)c2C#N)c1 for me?
Response: > 0.1 µM

Query: What does the record list as IC50 for CC[C@@]1(O)C(=O)OCc2c1cc1n(c2=O)Cc2cc3c(CN(C)C)c(O)ccc3nc2-1 + COC1C(OC(N)=O)C(O)C(Oc2ccc3c(O)c(NC(=O)c4ccc(O)c(CC=C(C)C)c4)c(=O)oc3c2C)OC1(C)C ?
Response: > 0.1 µM

Query: So what does the record say about IC50 for CCc1c2c(nc3ccc(O)cc13)-c1cc3c(c(=O)n1C2)COC(=O)[C@]3(O)CC + COC1C(OC(N)=O)C(O)C(Oc2ccc3c(O)c(NC(=O)c4ccc(O)c(CC=C(C)C)c4)c(=O)oc3c2C)OC1(C)C ?
Response: 0.0226 µM

Query: Sample COc1cc2cc(C(=O)CCC(=O)O)sc2cc1OC + COC1C(OC(N)=O)C(O)C(Oc2ccc3c(O)c(NC(=O)c4ccc(O)c(CC=C(C)C)c4)c(=O)oc3c2C)OC1(C)C — what was its IC50?
Response: > 10 µM

Query: So what's the measured IC50 for this one? CCc1cc2c(N3CCc4c(cc(Cn5ccnc5)cc4-c4cn(C)nc4C(F)(F)F)C3=O)ccnc2c(OC)n1 + COC1C(OC(N)=O)C(O)C(Oc2ccc3c(O)c(NC(=O)c4ccc(O)c(CC=C(C)C)c4)c(=O)oc3c2C)OC1(C)C
Response: > 10 µM

----------
System: 699152-130-R-J1-PDC complex spheroid viability
Assay: Anticancer human tumor 699152-130-R-J1-PDC cell line growth inhibition [POLQ];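 further: spheroids exposed to agents for 7 days before viability reading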;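 on viability, T/C: percent of DMSO vehicle control viability so 100% = vehicle and 0% = no viable signal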
Details: second compound 0.316 µM; first compound 0.001 µM; stronger effect = lower value
property: viability, T/C

[
  {
    "compound": "CC[C@@]1(O)C(=O)OCc2c1cc1n(c2=O)Cc2cc3c(CN(C)C)c(O)ccc3nc2-1 + Nc1ccc(C#CCN(C(=O)Cc2ncc(C(F)(F)F)cc2C(F)(F)F)c2ccc(F)cc2)nn1",
    "testTarget": "699152-130-R-J1-PDC complex spheroid viability",
    "property": "viability, T/C",
    "experimentalResult": "105%"
  },
  {
    "compound": "Cn1ncnc1[C@H]1c2n[nH]c(=O)c3cc(F)cc(c23)N[C@@H]1c1ccc(F)cc1 + Cc1cccc(N(C)C(=O)C2C(O)CCN2c2nc(C)cc(C(F)(F)F)c2C#N)c1",
    "testTarget": "699152-130-R-J1-PDC complex spheroid viability",
    "property": "viability, T/C",
    "experimentalResult": "97.6%"
  },
  {
    "compound": "CC[C@@]1(O)C(=O)OCc2c1cc1n(c2=O)Cc2cc3c(CN(C)C)c(O)ccc3nc2-1 + Cc1cccc(N(C)C(=O)C2C(O)CCN2c2nc(C)cc(C(F)(F)F)c2C#N)c1",
    "testTarget": "699152-130-R-J1-PDC complex spheroid viability",
    "property": "viability, T/C",
    "experimentalResult": "99.2%"
  },
  {
    "compound": "Cn1ncnc1[C@H]1c2n[nH]c(=O)c3cc(F)cc(c23)N[C@@H]1c1ccc(F)cc1 + COC1C(OC(N)=O)C(O)C(Oc2ccc3c(O)c(NC(=O)c4ccc(O)c(CC=C(C)C)c4)c(=O)oc3c2C)OC1(C)C",
    "testTarget": "699152-130-R-J1-PDC complex spheroid viability",
    "property": "viability, T/C",
    "experimentalResult": "99.5%"
  },
  {
    "compound": "CC[C@@]1(O)C(=O)OCc2c1cc1n(c2=O)Cc2cc3c(CN(C)C)c(O)ccc3nc2-1 + COC1C(OC(N)=O)C(O)C(Oc2ccc3c(O)c(NC(=O)c4ccc(O)c(CC=C(C)C)c4)c(=O)oc3c2C)OC1(C)C",
    "testTarget": "699152-130-R-J1-PDC complex spheroid viability",
    "property": "viability, T/C",
    "experimentalResult": "94.3%"
  }
]

Note: attention shifts to another entry.
Query: viability, T/C lookup needed for Cn1ncnc1[C@H]1c2n[nH]c(=O)c3cc(F)cc(c23)N[C@@H]1c1ccc(F)cc1 + Nc1ccc(C#CCN(C(=O)Cc2ncc(C(F)(F)F)cc2C(F)(F)F)c2ccc(F)cc2)nn1 , thanks.
Response: 91.6%
